Recorded time of caspase activity spike values for a group of compounds are listed next.
System: M14 cells
assay-notes: ApoTox-Glo triplex assay
Assay type: cell-based
experimental-setup: time points 4, 24, 48, 72 h
assay-readout: time of caspase activity spike

- compound: "Cc1[nH]c2ccccc2c1CCNCc1ccc(/C=C/C(=O)NO)cc1 [panobinostat]"
  result: "24 to 48 h"
- compound: "CC(C)(C)c1ccc(C(O)CCCN2CCC(C(O)(c3ccccc3)c3ccccc3)CC2)cc1 (stereo not shown) [terfenadine]"
  result: "4 to 24 h"
- compound: "O=C1NC[C@H](Cc2ccccc2)N(C[C@@H]2CCCN2C[C@@H](CC2CCCCC2)N2C[C@H](Cc3ccc(O)cc3)N(CCc3ccccc3)C(=O)C2=O)C1=O [Compound 2155-14]"
  result: "24 h"
